assay: Estimation of solubility in various solvents by step-wise solvent addition; format: physicochemical; settings: methanol, 23 °C, organic solvent or mixture, thermodynamic from solid, methanol, 23° C.; read-out: Estimated solubility
Endpoint Name: solubility

Q: Recorded solubility for Cc1[nH]c(/C=C2\C(=O)Nc3ccc(F)cc32)c(C)c1C(=O)NCCN1CCCC1 [Compound I free base (polymorph Form A)] , please?
Ans: 210 to 310 µg/mL

====

assay: Estimation of solubility in various solvents by step-wise solvent addition; assay type: physicochemical; details: buffer (pH 2, HCl and KCl), 23 °C, pH 2, aqueous buffer, thermodynamic from solid, buffer (pH = 2, HCl and KCl), 23° C.; read-out: Estimated solubility
Endpoint Name: solubility

Q: So what's the measured solubility for this one? Cc1[nH]c(/C=C2\C(=O)Nc3ccc(F)cc32)c(C)c1C(=O)NCCN1CCCC1 [Compound I phosphate]
Ans: 5900 to 7400 µg/mL

====

test: Compound I phosphate plasma levels in dogs with mast cell tumors (LC/MS/MS); assay type: in vivo, canine; conditions: dog, plasma, oral, 3.25 mg/kg, single dose at 3.25 mg/kg, dogs; read-out: plasma concentration at 8 h (approximately Cmax), average
Endpoint Name: Cmax at 8 h (ng/mL)
Please state the figure in ng/mL; there is no need to write the unit.

Q: What Cmax at 8 h value was documented for this molecule, Cc1[nH]c(/C=C2\C(=O)Nc3ccc(F)cc32)c(C)c1C(=O)NCCN1CCCC1 [Compound I phosphate] ?
Ans: 105

====

test: Compound I phosphate plasma levels in dogs with mast cell tumors (LC/MS/MS); assay type: in vivo, canine; conditions: dog, plasma, oral, 3.25 mg/kg, single dose at 3.25 mg/kg, 8 h; read-out: average plasma concentration for dogs that did not score for KIT target modulation
Endpoint Name: concentration at 8 h (ng/mL)
Give the value, in units of ng/mL, as a plain number.

Q: If you can, please state the reported concentration at 8 h value of Cc1[nH]c(/C=C2\C(=O)Nc3ccc(F)cc32)c(C)c1C(=O)NCCN1CCCC1 [Compound I phosphate] .
Ans: 137

====

assay: Compound I phosphate plasma levels in dogs with mast cell tumors (LC/MS/MS); type: in vivo, canine; conditions: dog, plasma, oral, 3.25 mg/kg, single dose at 3.25 mg/kg, dogs; read-out: plasma concentration at 8 h (approximately Cmax), range over dogs
Endpoint Name: Cmax at 8 h

Q: Consider the molecule Cc1[nH]c(/C=C2\C(=O)Nc3ccc(F)cc32)c(C)c1C(=O)NCCN1CCCC1 [Compound I phosphate] and give its measured Cmax at 8 h.
Ans: 33.2 to 186 ng/mL

====

experiment: Solubility of Compound I in pH 6 phosphate buffer; format: physicochemical; conditions: aqueous buffer; pH 6 phosphate buffer at 25° C.
Endpoint Name: solubility

Q: Look at this compound and give its reported solubility. `Cc1[nH]c(/C=C2\C(=O)Nc3ccc(F)cc32)c(C)c1C(=O)NCCN1CCCC1`
Ans: ~10 µg/mL

====

assay: Estimation of solubility in various solvents by step-wise solvent addition; format: physicochemical; details: acetonitrile, 23 °C, organic solvent or mixture, thermodynamic from solid, Acetonitrile, 23° C.; read-out: Estimated solubility
Endpoint Name: solubility

Q: Please report the recorded solubility for Cc1[nH]c(/C=C2\C(=O)Nc3ccc(F)cc32)c(C)c1C(=O)NCCN1CCCC1 [Compound I free base (polymorph Form A)] .
Ans: < 80 µg/mL
